Known cell count of a selection of molecules
Assay: inhibitors of TNFa-induced NFkB p65 translocation, primary screen, imaging, HUVEC, MLSMR starter and 10KST1 sets (AID 438);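 also: compound added about 3h40 before a 20 min TNFalpha stimulation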
Conditions: HUVEC TNFa-induced p65 nuclear translocation; measured here: nuclei count (cytotoxicity indicator), at 2.08 µM

[in] Find the recorded cell count belonging to "CCOC(=O)CSc1nnc(CNC(=O)c2ccc(S(=O)(=O)N3CCCC3)cc2)n1C" and report it.
[out] 617

[in] Find the recorded cell count belonging to CC(=O)Nc1ccc(S(=O)(=O)N2CCN(C(C)CCc3ccccc3)CC2)cc1 (centres undefined) and report it.
[out] 440

[in] Find the recorded cell count belonging to "Cc1nn(-c2ccccc2)c2[nH]c(C(F)(F)F)cc(=O)c12" and report it.
[out] 364

[in] Find the recorded cell count belonging to "CC(=O)N1CN(C2CCCC2)Cc2c1sc1c2CCCC1" and report it.
[out] 793

[in] Find the recorded cell count belonging to "COc1ccc(NC(=O)CSc2ccccn2)cc1OC" and report it.
[out] 554

[in] Find the recorded cell count belonging to COc1cccc(Nc2nnc(SCC(=O)N3CC(C)OC(C)C3)s2)c1 (centres undefined) and report it.
[out] 448

[in] Find the recorded cell count belonging to "O=C(Nc1cccnc1N1CCOCC1)c1ccco1" and report it.
[out] 579

[in] Find the recorded cell count belonging to "COc1ccc(C(=O)CSc2nnc(-c3ccc(C)cc3)o2)cc1" and report it.
[out] 419

[in] Find the recorded cell count belonging to "NC(=O)CSc1nnc(-c2cnccn2)n1-c1ccccc1" and report it.
[out] 625

====

Known inhibition of aggregation of a selection of molecules
Assay: reduction of polyQ htt aggregates in cells – imaging, exon1htt(103Q)mCFP cells, high-content imaging, primary screen (AID 483);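 also: compound exposure lasted 3 days before fixation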
Conditions: exon1htt(103Q)mCFP cell line, aggregate imaging, at 2 µM; stronger effect = higher value
Express your answer in %, writing the number without its unit.

[in] Find the recorded inhibition of aggregation belonging to "COCCN(CCOC)C(=O)CCn1c(=O)oc2ccccc21" and report it.
[out] 2.1

====

Experiment: reduction of polyQ htt aggregates in cells – imaging, exon1htt(103Q)mCFP cells, high-content imaging, primary screen (AID 483);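 also: compound exposure lasted 3 days before fixation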
Details: exon1htt(103Q)mCFP cell line, aggregate imaging, at 2 µM; stronger effect = higher value
REPORTED_PROPERTY: inhibition of aggregation (%)
Express your answer in %, writing the number without its unit.

Below are worked cases with known answers.
[in] Find the recorded inhibition of aggregation belonging to "Cc1ccc(S(=O)(=O)NCC(=O)OCC(=O)Nc2ncc(Cl)cc2Cl)cc1" and report it.
[out] -19.2

[in] Find the recorded inhibition of aggregation belonging to N#CC1=C(N)N(c2ccccc2)C(c2ccco2)C1(C#N)C#N (stereo not given) and report it.
[out] -3.9

[in] Find the recorded inhibition of aggregation belonging to "O=C(NC1CCCCCC1)c1cc(S(=O)(=O)N2CCC3(CC2)OCCO3)ccc1F" and report it.
[out] -53.3

---
[in] Find the recorded inhibition of aggregation belonging to "CCC(=O)N1CCc2cc(S(=O)(=O)CCC(=O)Nc3ccc(C)c(F)c3)ccc21" and report it.
[out] -3

[in] Find the recorded inhibition of aggregation belonging to "O=C(Cn1ncc2c(=O)oc3ccccc3c21)Nc1nc2ccccc2s1" and report it.
[out] 1.3

[in] Find the recorded inhibition of aggregation belonging to "O=C(c1ccco1)N1CCN(c2nc(C(F)(F)F)nc3c2nnn3Cc2ccccc2)CC1" and report it.
[out] -6.6

[in] Find the recorded inhibition of aggregation belonging to "COc1cccc(-c2nnc(SCC(=O)N3CCCc4ccccc43)o2)c1" and report it.
[out] -6.3

[in] Find the recorded inhibition of aggregation belonging to "O=C(CSCc1n[nH]c(=O)[nH]1)NCCOc1cccc(Oc2ccccc2)c1" and report it.
[out] 8.5

[in] Find the recorded inhibition of aggregation belonging to "CC(C)CCN(C)C1CCN(S(=O)(=O)c2ccc(F)cc2)CC1" and report it.
[out] -2.4

[in] Find the recorded inhibition of aggregation belonging to CC(=O)Nc1nnc(SCC(=O)NCC2CCCO2)s1 (stereo not given) and report it.
[out] -1.3
